Tested on: Vaccinia virus
protocol.notes: Antiviral activity against Vaccinia virus Elstree-Lister infected in african green monkey Vero cells after 3 days by plaque reduction assay
Format: functional, organism-based
particulars: Orthopoxvirus vaccinia, 72 h
quantity.name: EC50

>  <compound>
O=[N+]([O-])c1ccc(-c2nc3cc(C(F)(F)F)ccc3[nH]2)cc1

>  <quantity.name>
EC50

>  <reported.measurement>
4 µM

$$$$
>  <compound>
COc1ccc(-c2nc3cc([N+](=O)[O-])ccc3[nH]2)c(OC)c1OC

>  <quantity.name>
EC50

>  <reported.measurement>
> 100 µM

$$$$
>  <compound>
COc1ccc(-c2nc3cc([N+](=O)[O-])ccc3[nH]2)c(OC)c1

>  <quantity.name>
EC50

>  <reported.measurement>
> 100 µM

$$$$
>  <compound>
COc1ccc(-c2nc3cc(Cl)c(Cl)cc3[nH]2)c([N+](=O)[O-])c1

>  <quantity.name>
EC50

>  <reported.measurement>
> 80 µM

$$$$
>  <compound>
Cn1c(-c2ccc([N+](=O)[O-])cc2)nc2cc(C(F)(F)F)ccc21

>  <quantity.name>
EC50

>  <reported.measurement>
> 100 µM

$$$$
>  <compound>
O=[N+]([O-])c1ccc(-c2nc3cc(Cl)c(Cl)cc3[nH]2)cc1

>  <quantity.name>
EC50

>  <reported.measurement>
0.1 µM

$$$$
>  <compound>
COc1ccc(-c2nc3cc(Cl)c(Cl)cc3[nH]2)cc1

>  <quantity.name>
EC50

>  <reported.measurement>
> 30 µM

$$$$
>  <compound>
O=[N+]([O-])c1ccc(-c2nc3cc(C(F)(F)F)ccc3[nH]2)c([N+](=O)[O-])c1

>  <quantity.name>
EC50

>  <reported.measurement>
> 25 µM

$$$$
>  <compound>
O=[N+]([O-])c1ccccc1-c1nc2ccccc2[nH]1

>  <quantity.name>
EC50

>  <reported.measurement>
> 100 µM

$$$$
>  <compound>
Oc1ccc(-c2nc3cc(Cl)c(Cl)cc3[nH]2)cc1

>  <quantity.name>
EC50

>  <reported.measurement>
> 18 µM

$$$$
>  <compound>
C#C[C@@]1(O)[C@H](O)[C@@H](CO)O[C@H]1n1ccc(N)nc1=O [2'-ETHYNYL-D-CYTIDINE]

>  <quantity.name>
EC50

>  <reported.measurement>
> 100 µM

$$$$
>  <compound>
NC(=O)c1ncn([C@@H]2O[C@H](CO)[C@@H](O)[C@H]2O)n1 [RIBAVIRIN]

>  <quantity.name>
EC50

>  <reported.measurement>
> 100 µM

$$$$
>  <compound>
O=[N+]([O-])c1ccc(-c2nc3cc(C(F)(F)F)ccc3n2C23CC4CC(CC(C4)C2)C3)cc1

>  <quantity.name>
EC50

>  <reported.measurement>
> 100 µM

$$$$
>  <compound>
COc1cccc(-c2nc3cc(C(F)(F)F)ccc3[nH]2)c1

>  <quantity.name>
EC50

>  <reported.measurement>
> 100 µM

$$$$
>  <compound>
COc1ccc(-c2nc3cc(C(F)(F)F)ccc3[nH]2)c(OC)c1

>  <quantity.name>
EC50

>  <reported.measurement>
> 100 µM

$$$$
>  <compound>
COc1ccc(-c2nc3cc(Cl)c(Cl)cc3[nH]2)c(N)c1

>  <quantity.name>
EC50

>  <reported.measurement>
> 75 µM

$$$$
>  <compound>
Fc1ccc(-c2nc3cc(C(F)(F)F)ccc3[nH]2)cc1

>  <quantity.name>
EC50

>  <reported.measurement>
8 µM

$$$$
>  <compound>
C[C@@]1(O)[C@H](O)[C@@H](CO)O[C@H]1n1cnc2c(=O)[nH]c(N)nc21 [2'-B-METHYL-GUANOSINE]

>  <quantity.name>
EC50

>  <reported.measurement>
> 100 µM

$$$$
>  <compound>
O=[N+]([O-])c1ccc(-c2nc3ccccc3[nH]2)c([N+](=O)[O-])c1

>  <quantity.name>
EC50

>  <reported.measurement>
> 100 µM

$$$$
>  <compound>
COc1ccc(-c2nc3cc(C(F)(F)F)ccc3[nH]2)cc1

>  <quantity.name>
EC50

>  <reported.measurement>
> 15 µM

$$$$
>  <compound>
CN1CCN(CC(=O)Nc2ccc(-c3nc4cc(Cl)c(Cl)cc4[nH]3)cc2)CC1

>  <quantity.name>
EC50

>  <reported.measurement>
6 µM

$$$$
>  <compound>
COc1ccc(-c2nc3cc(C(C)=O)ccc3[nH]2)c(OC)c1OC

>  <quantity.name>
EC50

>  <reported.measurement>
> 100 µM

$$$$
>  <compound>
Fc1cccc(F)c1-c1nc2cc(Cl)c(Cl)cc2[nH]1

>  <quantity.name>
EC50

>  <reported.measurement>
> 100 µM

$$$$
>  <compound>
Fc1cccc(F)c1-c1nc2cc(C(F)(F)F)ccc2[nH]1

>  <quantity.name>
EC50

>  <reported.measurement>
> 25 µM

$$$$
>  <compound>
COc1cc(-c2nc3cc(C(F)(F)F)ccc3[nH]2)cc(OC)c1OC

>  <quantity.name>
EC50

>  <reported.measurement>
> 29 µM

$$$$
>  <compound>
O=[N+]([O-])c1ccc(-c2nc3cc(C(F)(F)F)ccc3n2C2CCCCC2)cc1

>  <quantity.name>
EC50

>  <reported.measurement>
87 µM

$$$$
>  <compound>
COc1ccc(-c2nc3cc(C(C)=O)ccc3[nH]2)c(OC)c1

>  <quantity.name>
EC50

>  <reported.measurement>
> 100 µM

$$$$
>  <compound>
COc1ccc(-c2nc3cc(C(F)(F)F)ccc3[nH]2)c([N+](=O)[O-])c1

>  <quantity.name>
EC50

>  <reported.measurement>
> 20 µM

$$$$
>  <compound>
Nc1nc2c(ncn2COCCO)c(=O)[nH]1 [ACYCLOVIR]

>  <quantity.name>
EC50

>  <reported.measurement>
> 100 µM

$$$$
>  <compound>
O=c1cnn([C@@H]2O[C@H](CO)[C@@H](O)[C@H]2O)c(=O)[nH]1 (stereo in doubt; form 1) [6-AZAURIDINE]

>  <quantity.name>
EC50

>  <reported.measurement>
11 µM

$$$$
>  <compound>
COc1ccc(-c2nc3cc(C(F)(F)F)ccc3[nH]2)c(N)c1

>  <quantity.name>
EC50

>  <reported.measurement>
> 50 µM

$$$$
>  <compound>
Oc1ccc(-c2nc3cc(C(F)(F)F)ccc3[nH]2)cc1

>  <quantity.name>
EC50

>  <reported.measurement>
> 100 µM

$$$$
>  <compound>
COc1ccc(-c2nc3cc(C(F)(F)F)ccc3[nH]2)c(OC)c1OC

>  <quantity.name>
EC50

>  <reported.measurement>
> 70 µM

$$$$
>  <compound>
COc1cc(OC)cc(-c2nc3cc(C(F)(F)F)ccc3[nH]2)c1

>  <quantity.name>
EC50

>  <reported.measurement>
> 100 µM

$$$$
